- System Under Test: recombinant human Meningioma Expressed Antigen 5 (MGEA5), also referred to as O-GlcNAcase (OGA) (Homo sapiens, UniProt O60502)
- Construct: Full length OGA enzyme was purchased at OnGene (cat #TP322411); purchased OnGene (so in the source)
- Sequence (O60502 whole entry): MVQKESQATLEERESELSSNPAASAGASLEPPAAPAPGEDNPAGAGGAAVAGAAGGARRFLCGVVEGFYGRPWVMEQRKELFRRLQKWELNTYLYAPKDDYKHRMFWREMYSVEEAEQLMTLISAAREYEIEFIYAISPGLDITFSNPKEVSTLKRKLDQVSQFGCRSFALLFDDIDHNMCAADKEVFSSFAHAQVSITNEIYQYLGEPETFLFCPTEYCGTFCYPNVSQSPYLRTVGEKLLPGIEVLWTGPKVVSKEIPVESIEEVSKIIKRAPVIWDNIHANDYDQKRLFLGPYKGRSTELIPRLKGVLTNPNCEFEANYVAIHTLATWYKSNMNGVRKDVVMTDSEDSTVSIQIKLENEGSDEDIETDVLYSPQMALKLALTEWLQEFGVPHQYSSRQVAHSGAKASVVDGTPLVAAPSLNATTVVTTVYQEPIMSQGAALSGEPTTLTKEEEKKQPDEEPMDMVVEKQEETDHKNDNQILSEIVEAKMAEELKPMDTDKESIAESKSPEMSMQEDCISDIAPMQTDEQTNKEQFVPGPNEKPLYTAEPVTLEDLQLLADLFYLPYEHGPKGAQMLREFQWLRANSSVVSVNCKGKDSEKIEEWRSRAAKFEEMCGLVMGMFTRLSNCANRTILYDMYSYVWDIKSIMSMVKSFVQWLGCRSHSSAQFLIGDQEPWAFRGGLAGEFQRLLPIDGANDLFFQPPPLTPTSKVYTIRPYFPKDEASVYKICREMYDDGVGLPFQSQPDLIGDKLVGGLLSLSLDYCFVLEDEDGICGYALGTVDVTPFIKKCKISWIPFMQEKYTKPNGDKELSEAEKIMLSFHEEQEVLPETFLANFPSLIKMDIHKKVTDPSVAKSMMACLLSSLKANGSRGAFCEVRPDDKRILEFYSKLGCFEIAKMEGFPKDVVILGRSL
- Assay Comment: OGA biochemical assay (inhibition of FM-GlcNAc hydrolysis, fluorescence)
- Condition Set: maximal effect, read-out: Enzymatic Emax (%)
Readout Label: Emax (%)
// units = %; emit number, no label

Some molecules with recorded Emax:
1. Cc1cc(NC[C@H]2CCCN(C(C)c3nc4c(cc3F)OCCO4)C2)cc(C)n1 (stereo partly drawn) [Product 181]    101
2. Cc1cc(C2CCCN(C(C)c3nc4c(cc3F)OCCO4)C2)c(F)c(C)n1 (stereo not drawn) [Product 189]    100
3. Cc1cc([C@H]2CCCN(C(C)c3nc4c(cc3F)CCO4)C2)cc(C)n1 (single isomer, unassigned) [Product 171]    100
4. Cc1cc(C[C@H]2CCCN([C@H](C)c3cc4c(cc3F)OCCO4)C2)cc(C)n1 (single isomer, unassigned) [Product 41]    94

Moving on to the next molecule.
What does the data say about its Emax? Entry: Cc1cc(NCC2CCCN(C(C)c3cc4c(cc3F)OCCO4)C2)cc(C(F)(F)F)n1 (stereo not drawn) [Product 99] 105

* * *

- System Under Test: recombinant human Meningioma Expressed Antigen 5 (MGEA5), also referred to as O-GlcNAcase (OGA) (Homo sapiens)
- Construct: Full length OGA enzyme was purchased at OnGene (cat #TP322411); purchased OnGene (so in the source)
- Assay Comment: OGA biochemical assay (inhibition of FM-GlcNAc hydrolysis, fluorescence)
- Condition Set: maximal effect, read-out: Enzymatic Emax (%)
Readout Label: Emax (%)
// units = %; emit number, no label

1) Cc1cc([C@H]2CCCN(C(C)c3cnc4c(c3)OCCN4)C2)cc(C)n1 (single isomer, unassigned)    101
2) Cc1cc([C@H]2CCCN(C(C)c3nc4c(cc3F)OCCO4)C2)cc(C)n1 (single isomer, unassigned)    100
3) Cc1cc([C@@H]2CCCN(C(C)c3ccc4c(n3)OCCO4)C2)cc(C)n1 (single isomer, unassigned)    92

What does the data say about its Emax? Entry: Cc1cc(NCC2CCCN(C(C)c3cc4c(cc3F)OCCO4)C2)cc(C)n1 (stereo not shown) 102

What does the data say about its Emax? Entry: CC(c1nc2c(cc1F)OCCO2)N1CCC[C@@H](CNc2ccc(F)cc2)C1 (stereo partly shown) 100

What does the data say about its Emax? Entry: Cc1cc(C2CCCN(C(C)c3cnc4c(c3)OCCN4)C2)cc(C)n1 (stereo not shown) 101

What does the data say about its Emax? Entry: Cc1cc([C@@H]2CCCN([C@H](C)c3cc4c(cc3F)OCCO4)C2)cc(C(F)(F)F)n1 (single isomer, unassigned) 98

What does the data say about its Emax? Entry: Cc1cc(OC2CCCN(C(C)c3ccc4c(n3)OCCO4)C2)cc(C(F)(F)F)n1 (stereo not shown) 101

What does the data say about its Emax? Entry: Cc1cc(C[C@H]2CCCN(Cc3cnc4c(c3)OCCN4C)C2)cc(C)n1 94

What does the data say about its Emax? Entry: Cc1cc(C[C@H]2CCCN([C@@H](C)c3cnc4c(c3)OCCO4)C2)cc(C)n1 (single isomer, unassigned) 97

What does the data say about its Emax? Entry: Cc1cnc(OC2CCCN(C(C)c3ccc4c(n3)OCCO4)C2)c(C)n1 (stereo not shown) 103

What does the data say about its Emax? Entry: COc1cc(C[C@H]2CCCN([C@H](C)c3ccc4c(n3)OCCO4)C2)cc(C)n1 101

What does the data say about its Emax? Entry: Cc1cc(C2CCCN([C@H](C)c3ccc4c(n3)OCCO4)C2)nc(C)n1 (mixture of isomers) 100

What does the data say about its Emax? Entry: Cc1cc(NCC2CCCN(C(C)c3ccc4c(c3)OCC4)C2)cc(C)n1 (stereo not shown) 104

What does the data say about its Emax? Entry: Cc1cnc(C)c(C2CCCN(C(C)c3ccc4c(n3)OCCO4)C2)n1 (stereo not shown) 96

What does the data say about its Emax? Entry: COc1cc(NCC2CCCN(C(C)c3ccc4c(c3)OCC4)C2)cc(C)n1 (stereo not shown) 104
